Assignment: determine reported pIC50 for the given compounds.
System: MCF7
Assay procedure: Antiproliferative activity against human MCF7 cells assessed as reduction in cell growth after 72 hrs by MTT assay
Type: functional, cell-based
Assay context: MCF7, 72 h
Quick note: pIC50 values are minus log10 of concentrations in mol/L.

# pIC50 of C[C@@]12CCCC(=O)[C@@H]1[C@H](O)C1=C(C2)C(=O)C=CC1=O = 4.49

The compound listed as CCc1ccc([C@@]2(O)CCC[C@@]3(C)CC4=C(C[C@H]32)C(=O)C=CC4=O)cc1 shows pIC50 equal to 4.71

# compound C[C@@]12CCC[C@](O)(c3ccc(C(F)(F)F)cc3)[C@@H]1CC1=C(C2)C(=O)C=CC1=O ; its pIC50 = 4.87

Value of pIC50 reported for the compound C=C1CCC[C@@]2(C)CC3=C(C[C@@H]12)C(=O)C=CC3=O is 4.23

Note to self: pIC50 recorded for COc1ccc([C@@]2(O)CCC[C@@]3(C)CC4=C(C[C@H]32)C(=O)C=CC4=O)cc1 was 4.76
